system: Plasmodium falciparum; assay: Calibr Malaria Delayed Death Assay SOP; format: functional, organism-based; set-up: scale not given: in the data most compounds retested in dose-response had high values; settings: concentration 4.99e-06 (unit not given; other assays of the set use mol/L)
Out of some 38,000 compounds screened, about 1,200 (3.2%) showed an effect of 50% or more. The median lay at about -58%. The full list was thinned out, with strong results kept by preference.
Labelling: Percent Effect reported below -60% becomes True; at or above becomes False.

- COMPOUND: "CC(=O)N1CCCN(CC(C)(O)c2cccc(C(F)(F)F)c2)CC1 (stereo unspecified)"
  CAT: "True"

Ask | State whether -60% exceeds Percent Effect recorded for O=C1CC(NS(=O)(=O)c2ccc3ccccc3c2)CN1 (stereo unspecified) .
Reply | True

Ask | State whether -60% exceeds Percent Effect recorded for CC(Nc1nc(-c2ccncc2)nc2c1CCNC2)c1ccccc1 (stereo unspecified) .
Reply | False

Ask | State whether -60% exceeds Percent Effect recorded for CCOCc1nc2c(c(NC(CC)c3cccnc3)n1)CCNCC2 (stereo unspecified) .
Reply | True

Ask | State whether -60% exceeds Percent Effect recorded for CCn1c(=O)nc(N)c2c(-c3ccc(OC)cc3)csc21 .
Reply | True

Ask | State whether -60% exceeds Percent Effect recorded for CCN(CC)c1ncnc2c1CCN(c1ccc(C)nn1)CC2 .
Reply | True

Ask | State whether -60% exceeds Percent Effect recorded for OC1(CN2CCOC(Cn3cncn3)C2)CCCCC1 (stereo unspecified) .
Reply | False

Ask | State whether -60% exceeds Percent Effect recorded for Cn1ccnc1CN1CCc2ncnc(N3CCCC(C#N)C3)c2CC1 (stereo unspecified) .
Reply | True

Ask | State whether -60% exceeds Percent Effect recorded for Cn1nc(CN2CCCCC2)c2c1CN(C(=O)c1ccoc1)C2 .
Reply | False

Ask | State whether -60% exceeds Percent Effect recorded for N#CC1CCCN(c2nc(-c3ccccc3)nc3c2CCNCC3)C1 (stereo unspecified) .
Reply | False

Ask | State whether -60% exceeds Percent Effect recorded for CC(C)Nc1nc(N2CCCC2)nc2c1CN(C)CC2 .
Reply | False

Ask | State whether -60% exceeds Percent Effect recorded for O=C(NCC1(O)CCSC1)c1cccc(-n2cccn2)c1 (stereo unspecified) .
Reply | True

Ask | State whether -60% exceeds Percent Effect recorded for CN(Cc1ccccc1)CC1CC2(CO1)CN(Cc1nccs1)C2 (stereo unspecified) .
Reply | False

Ask | State whether -60% exceeds Percent Effect recorded for CCN1CCc2nc(N3CCOCC3)nc(NC(C)C)c2C1 .
Reply | False

Ask | State whether -60% exceeds Percent Effect recorded for c1cc(-c2cscn2)cc(N2CCC(NCCc3cccs3)CC2)c1 .
Reply | False

Ask | State whether -60% exceeds Percent Effect recorded for c1ccc2c(c1)CCN(c1nc(-c3ccncc3)nc3c1CCNC3)C2 .
Reply | False

---

test system: Plasmodium falciparum; assay: Calibr Malaria Delayed Death Assay SOP; format: functional, organism-based; design: scale not given: in the data most compounds retested in dose-response had high values; conditions: concentration 4.99e-06 (unit not given; other assays of the set use mol/L)
Screen size: about 38,000 compounds; about 1,200 (3.2%) showed an effect of 50% or more. The median lay at about -58%. Only a selection was taken, and strong results are over-represented in it overall.
RECORDED_ENDPOINT: Percent Effect
Remember to quote the unit after the number.

Ask | Look up Percent Effect of Cc1ccsc1C(O)CNC(=O)Cc1ccc(F)cc1 (stereo not given) and report it.
Reply | -29.72%

Ask | Look up Percent Effect of C[C@]1(O)CN(CCO)CC[C@@H]1Oc1cccc(F)c1 and report it.
Reply | 63.55%

Ask | Look up Percent Effect of CN(Cc1ccccc1O)CC1CCCN(CCc2ccc(Cl)cc2)C1 (stereo not given) and report it.
Reply | -82.77%

Ask | Look up Percent Effect of CC(C)(C)c1ncc(CNc2ccccc2SCCC(N)=O)s1 and report it.
Reply | -73.84%

Ask | Look up Percent Effect of CCC(=O)NC(CC)c1ccccc1C (stereo not given) and report it.
Reply | -70.92%

Ask | Look up Percent Effect of COCC(O)CN(C)c1ccnc2ccc(Cl)cc12 (stereo not given) and report it.
Reply | -46.57%

Ask | Look up Percent Effect of CN(Cc1ccncc1)CC1CCCN(CCc2ccc(Cl)cc2)C1 (stereo not given) and report it.
Reply | -30.31%

Values from ChEMBL document CHEMBL3988442
